# test target: sGC α1/β1 heterodimer (Homo sapiens (Human), UniProt Q02108+Q02153)
# assay summary: Cell-based sGC functional assay (cyclic GMP assay for sGC activator: CASA assay)
# test parameters: inflection point, 4P fit; CHO-K1/sGC cells; read-out: IP

compound: CC(C)(Cc1coc(C2(C)C(=O)Nc3nc(-c4nn(Cc5cccc(F)c5)c5ncccc45)nc(N)c32)n1)C(=O)O (stereo not shown) [Example 150A]
EC50, nM: 294

compound: CC(C)(Cc1csc([C@]2(C)C(=O)Nc3nc(-c4nn(CCCC(F)(F)F)c5nc(Cl)ccc45)nc(N)c32)n1)C(=O)O [Example 89B]
EC50, nM: 442

compound: Cc1cccc(Cn2nc(-c3nc(N)c4c(n3)NC(=O)[C@@]4(C)c3nc(CC(C)(C)C(=O)O)cs3)c3ccc(Cl)cc32)c1F [Example 188A]
EC50, nM: 109

compound: CC1(c2nc(CC(=O)O)co2)C(=O)Nc2nc(-c3nn(Cc4ccccc4F)c4cc(Cl)ccc34)nc(N)c21 (stereo not shown) [Example 51B]
EC50, nM: 485

compound: C[C@@]1(c2nc(CC3(C(=O)O)CC3)cs2)C(=O)Nc2nc(-c3nn(CCC(F)(F)C(F)(F)F)c4ncccc34)nc(N)c21 [Example 81B]
EC50, nM: 504

compound: CC(C)(Cc1csc([C@]2(C)C(=O)Nc3nc(-c4nn(Cc5cccc(F)c5F)c5cc(Cl)ccc45)nc(N)c32)n1)C(=O)O [Example 181A]
EC50, nM: 278

compound: CC(C)(Cc1csc([C@]2(C)C(=O)Nc3nc(-c4nn(CC5CCCC5)c5cc(Cl)ccc45)nc(N)c32)n1)C(=O)O [Example 162A]
EC50, nM: 69

compound: CC(C)(Cc1csc([C@]2(C)C(=O)Nc3nc(-c4nn(Cc5ccc(F)cc5F)c5cc(Cl)ccc45)nc(N)c32)n1)C(=O)O [Example 179A]
EC50, nM: 262

compound: CC(C)(Cc1coc(C2(C)C(=O)Nc3nc(-c4nn(Cc5cccc(F)c5F)c5cc(Cl)ccc45)nc(N)c32)n1)C(=O)O (stereo not shown) [Example 180A]
EC50, nM: 228

compound: CC1(c2nc(-c3ccc(C(=O)O)cc3)cs2)C(=O)Nc2nc(-c3nn(Cc4ccccc4F)c4cc(Cl)ccc34)nc(N)c21 (stereo not shown) [Example 165A]
EC50, nM: 48

compound: CC1(c2cccc(-c3nn[nH]n3)n2)C(=O)Nc2nc(-c3nn(Cc4ccccc4F)c4cc(Cl)ccc34)nc(N)c21 (single isomer, unassigned) [Example 253A]
EC50, nM: 3630

compound: COCCn1nc(-c2nc(N)c3c(n2)NC(=O)[C@@]3(C)c2ccc(CCC(=O)O)cc2)c2ccc(Cl)cc21 (single isomer, unassigned) [Example 40B]
EC50, nM: 2560

compound: CC1(c2nc(-c3ccc(C(=O)O)cc3)co2)C(=O)Nc2nc(-c3nn(Cc4ccccc4F)c4ncccc34)nc(N)c21 (stereo not shown) [Example 146A]
EC50, nM: 94

* * *

# test target: human recombinant sGC enzyme (Homo sapiens (Human), UniProt Q02108+Q02153)
# assay summary: Size Exclusion Chromatography (SEC) competition binding assay using [3H] Ex-77B as the radioligand
# test parameters: [3H] Ex-77B radioligand, 24 hours at 37° C.

compound: CC1CCC(Cn2nc(-c3nc(N)c4c(n3)NC(=O)C4(C)c3nc(CC(C)(C)C(=O)O)co3)c3ccccc32)CC1 (single isomer, unassigned) [Example 231AB]
Ki [nM]: 0.087
--
compound: CC1CCC(Cn2nc(-c3nc(N)c4c(n3)NC(=O)[C@@]4(C)c3nc(CC(C)(C)C(=O)O)cs3)c3cccnc32)CC1 (single isomer, unassigned) [Example 125AA]
Ki [nM]: 0.783
--
compound: CC[C@H](NC(=O)CCc1ccc([C@]2(C)C(=O)Nc3nc(-c4nn(Cc5ccccc5F)c5ncccc45)nc(N)c32)cc1)C(=O)O [Example 105B]
Ki [nM]: 0.042
--
compound: CC(C)(Cc1csc([C@]2(C)C(=O)Nc3nc(-c4nn(Cc5ncccc5F)c5cc(Cl)ccc45)nc(N)c32)n1)C(=O)O [Example 185A]
Ki [nM]: 0.165
--
compound: CC(C)(C)CCn1nc(-c2nc(N)c3c(n2)NC(=O)C3(C)c2nc(CC(C)(C)C(=O)O)co2)c2ccc(Cl)cc21 (stereo not drawn) [Example 208A]
Ki [nM]: 0.253
--
compound: CC1(c2nc(C[C@@H](N)C(=O)O)co2)C(=O)Nc2nc(-c3nn(Cc4ccccc4F)c4cc(Cl)ccc34)nc(N)c21 (single isomer, unassigned) [Example 172A]
Ki [nM]: 0.098
--
compound: C[C@@]1(c2ccc(CCC(=O)O)cc2)C(=O)Nc2nc(-c3nn(Cc4ccccc4F)c4ncc(F)cc34)nc(N)c21 [Example 23B]
Ki [nM]: 0.099
--
compound: CC(C)(Cc1nc(C2(C)C(=O)Nc3nc(-c4nn(Cc5ccccc5F)c5cc(Cl)ccc45)nc(N)c32)cs1)C(=O)O (stereo not drawn) [Example 142B]
Ki [nM]: 0.183
--
compound: CC(C)(Cn1cc(C2(C)C(=O)Nc3nc(-c4nn(CCC(F)(F)C(F)(F)F)c5ncccc45)nc(N)c32)cn1)C(=O)O (stereo not drawn) [Example 144A]
Ki [nM]: 0.594
--
compound: CC1CCC(Cn2nc(-c3nc(N)c4c(n3)NC(=O)[C@@]4(C)c3ccc(CCC(=O)O)cc3)c3ccc(Cl)cc32)CC1 (single isomer, unassigned) [Example 5BA]
Ki [nM]: 0.162
--
compound: CC1(c2cnn(CCC(=O)O)n2)C(=O)Nc2nc(-c3nn(CCC(F)(F)C(F)(F)F)c4ncccc34)nc(N)c21 (stereo not drawn) [Example 109B]
Ki [nM]: 2
--
compound: CC(C)(Cc1coc(C2(C)C(=O)Nc3nc(-c4nn(Cc5c(F)cccc5F)c5cc(Cl)ccc45)nc(N)c32)n1)C(=O)O (stereo not drawn) [Example 182A]
Ki [nM]: 0.124
--
compound: CC(Cc1ccc(C2(C)C(=O)Nc3nc(-c4nn(CCC(F)(F)C(F)(F)F)c5cc(Cl)ccc45)nc(N)c32)cc1)C(=O)O (single isomer, unassigned) [Example 34AB]
Ki [nM]: 0.231
--
compound: CC(C)(Cc1csc([C@]2(C)C(=O)Nc3nc(-c4nn(Cc5ccccc5F)c5ccccc45)nc(N)c32)n1)c1nn[nH]n1 (single isomer, unassigned) [Example 236A]
Ki [nM]: 0.158
--
compound: Cc1cccc(Cn2nc(-c3nc(N)c4c(n3)NC(=O)[C@@]4(C)c3nc(CC(C)(C)C(=O)O)cs3)c3ccc(Cl)cc32)c1F [Example 188A]
Ki [nM]: 0.1
--
compound: CC1(c2nc3cc(C(=O)O)ccc3s2)C(=O)Nc2nc(-c3nn(Cc4ccccc4F)c4cc(Cl)ccc34)nc(N)c21 (stereo not drawn) [Example 130A]
Ki [nM]: 0.184
--
compound: CC(C)(Cc1coc(C2(C)C(=O)Nc3nc(-c4nn(Cc5ccccc5F)c5cc(Cl)ccc45)nc(N)c32)n1)c1nn[nH]n1 (stereo not drawn) [Example 239A]
Ki [nM]: 0.068
--
compound: CC(C)(Cc1csc([C@]2(C)C(=O)Nc3nc(-c4nn(CC5CCCC5)c5cc(Cl)ccc45)nc(N)c32)n1)C(=O)O [Example 162A]
Ki [nM]: 0.15
--
compound: CC1(c2ccc(OCC(=O)O)cc2)C(=O)Nc2nc(-c3nn(Cc4ccccc4F)c4cc(Cl)ccc34)nc(N)c21 (stereo not drawn) [Example 260A]
Ki [nM]: 0.058
--
compound: Cc1ccc2c(-c3nc(N)c4c(n3)NC(=O)[C@@]4(C)c3ccc(CCC(=O)O)cc3)nn(Cc3ccccc3F)c2c1 [Example 59B]
Ki [nM]: 0.293
--
compound: CC(C)(Cc1coc(C2(C)C(=O)Nc3nc(-c4nn(CC5CCCCC5)c5ncccc45)nc(N)c32)n1)C(=O)O (stereo not drawn) [Example 152A]
Ki [nM]: 0.031
--
compound: CC(C)(CCc1coc(C2(C)C(=O)Nc3nc(-c4nn(Cc5ccccc5F)c5cc(F)ccc45)nc(N)c32)n1)C(=O)O (stereo not drawn) [Example 193B]
Ki [nM]: 0.052
--
compound: CC(C)(Cc1csc([C@]2(C)C(=O)Nc3nc(-c4nn(Cc5cccc(F)c5)c5cc(F)ccc45)nc(N)c32)n1)C(=O)O [Example 194A]
Ki [nM]: 0.041
--
compound: Nc1nc(-c2nn(CCC(F)(F)C(F)(F)F)c3cc(Cl)ccc23)nc2c1C(c1ccc(CCC(=O)O)cc1)(C1CC1)C(=O)N2 (stereo not drawn) [Example 158A]
Ki [nM]: 0.864
